Give EC50 for every item shown.
# assay.system: 5HT2C receptors (Homo sapiens, UniProt P28335)
# Sequence (P28335 33-458): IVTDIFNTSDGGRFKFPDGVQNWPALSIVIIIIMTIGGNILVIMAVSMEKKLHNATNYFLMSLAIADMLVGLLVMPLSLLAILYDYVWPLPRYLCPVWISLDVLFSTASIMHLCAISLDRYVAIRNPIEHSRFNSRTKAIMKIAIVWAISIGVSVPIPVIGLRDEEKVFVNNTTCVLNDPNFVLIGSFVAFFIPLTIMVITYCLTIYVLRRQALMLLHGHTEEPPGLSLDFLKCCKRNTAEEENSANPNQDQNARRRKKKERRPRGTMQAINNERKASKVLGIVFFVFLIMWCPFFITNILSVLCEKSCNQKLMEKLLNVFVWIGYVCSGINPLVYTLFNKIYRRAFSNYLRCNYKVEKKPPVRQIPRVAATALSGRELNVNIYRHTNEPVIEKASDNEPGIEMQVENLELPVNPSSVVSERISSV
# assay.explanation: Human 5-HT2C functional high throughput screening assay in CHO-K1 cells (calcium flux)
# Format: cell-based
# Parameters: expressed in transfected cells; host or cells: CHO-K1 cells
# measurement.conditions: 5-HT2C agonist activity; CHO-K1 cells; calcium flux; read-out: EC50

Ask | // query EC50 value for entry CC(O)c1cccc(-c2ccc3c(c2)C(=O)NC[C@@H]2CN(C)C[C@@H]32)c1 (relative stereo)
Reply | 0.0007 µM

Ask | // query EC50 value for entry CC(=O)c1cccc(-c2ccc3c(c2)C(=O)N(C)C[C@@H]2CNC[C@@H]32)c1 (relative stereo)
Reply | 0.003 µM

Ask | // query EC50 value for entry N#Cc1ccccc1S(=O)(=O)N1Cc2cccnc2[C@@H]2CNC[C@H]2C1 (relative stereo)
Reply | 0.1 µM

Ask | // query EC50 value for entry O=C1NC[C@@H]2CN(Cc3ccccc3)C[C@H]2c2cc(F)ccc21 (relative stereo)
Reply | 0.2 µM

Ask | // query EC50 value for entry CNC(=O)c1ccc2c(c1)C(=O)NC[C@@H]1CN(C)C[C@@H]21 (relative stereo)
Reply | 2 µM

Ask | // query EC50 value for entry COc1cc(F)ccc1-c1ccc2c(c1)C(=O)NC[C@H]1CN(C)C[C@H]21
Reply | 0.009 µM

Ask | // query EC50 value for entry CC(C)C(=O)N1CC[C@@H]2CNC[C@H]2c2ccccc21 (relative stereo)
Reply | 0.3 µM

Ask | // query EC50 value for entry CN1C[C@@H]2CNC(=O)c3cc(OCc4cccc(F)c4)ccc3[C@H]2C1
Reply | 0.002 µM

Ask | // query EC50 value for entry CN1C[C@H]2CNC(=O)c3cc(-c4cccc(C(C)(C)O)c4)ccc3[C@@H]2C1 (relative stereo)
Reply | 0.001 µM

Ask | // query EC50 value for entry CC(=O)c1cccc(-c2ccc3c(c2)C(=O)NC[C@H]2CN(C)C[C@H]32)c1
Reply | 0.002 µM

Ask | // query EC50 value for entry c1cnc2c(c1)C1CNCC1CCO2 (mixture of isomers)
Reply | 1 µM

Ask | // query EC50 value for entry c1ccc(CN2CC[C@@H]3CNC[C@H]3c3ccccc32)cc1 (relative stereo)
Reply | 1 µM

Ask | // query EC50 value for entry O=C1NC[C@@H]2CN(Cc3ccccc3)C[C@H]2c2cccc(OC(F)(F)F)c21 (relative stereo)
Reply | 0.1 µM

Ask | // query EC50 value for entry COc1cccc(-c2ccc3c(c2)C(=O)NC[C@H]2CN(C)C[C@H]32)c1
Reply | 0.0008 µM

Ask | // query EC50 value for entry O=C1NC[C@@H]2CNC[C@H]2c2ccc(-c3ccsc3)cc21 (relative stereo)
Reply | 0.0003 µM

Ask | // query EC50 value for entry CN1C[C@H]2CNC(=O)c3cc(-c4ccc5c(c4)C(=O)CCO5)ccc3[C@@H]2C1 (relative stereo)
Reply | 0.008 µM

Ask | // query EC50 value for entry CN1C[C@H]2CNC(=O)c3cc(C4=CCOCC4)ccc3[C@@H]2C1 (relative stereo)
Reply | 0.2 µM

Ask | // query EC50 value for entry CN1C[C@H]2CNC(=O)c3cc(-c4ccc(S(C)(=O)=O)cc4)ccc3[C@@H]2C1 (relative stereo)
Reply | 0.2 µM

Ask | // query EC50 value for entry Fc1ccc(-c2cccc3c2OCC[C@H]2CNC[C@H]32)cc1 (relative stereo)
Reply | 0.09 µM

Ask | // query EC50 value for entry CC(O)c1cc(-c2ccc3c(c2)C(=O)NC[C@H]2CN(C)C[C@H]32)ccc1F (mixture of isomers)
Reply | 0.0007 µM

Ask | // query EC50 value for entry O=S(=O)(c1ccc(C(F)(F)F)cc1)N1Cc2cccnc2[C@@H]2CNC[C@H]2C1 (relative stereo)
Reply | 0.09 µM

Ask | // query EC50 value for entry CN1C[C@H]2CNC(=O)c3cc(C(=O)NCCc4ccccc4)ccc3[C@@H]2C1 (relative stereo)
Reply | 6 µM

Ask | // query EC50 value for entry O=C1NC[C@@H]2CNC[C@H]2c2ccc(-c3c(F)cccc3F)cc21 (relative stereo)
Reply | 0.008 µM

Ask | // query EC50 value for entry COc1ccc(CCOc2ccc3c(c2)C(=O)NC[C@@H]2CNC[C@@H]32)cc1 (relative stereo)
Reply | 0.006 µM

Ask | // query EC50 value for entry CN1C[C@@H]2CCOc3c(-c4ccc(F)cc4)cccc3[C@H]2C1 (relative stereo)
Reply | 0.8 µM

Ask | // query EC50 value for entry CN1C[C@H]2CNC(=O)c3cc(-c4cccc(C#N)c4)ccc3[C@@H]2C1 (relative stereo)
Reply | 0.01 µM

Ask | // query EC50 value for entry CN1C[C@H]2CNC(=O)c3cc(-c4ccc5ccccc5c4)ccc3[C@@H]2C1 (relative stereo)
Reply | 0.022 µM

Ask | // query EC50 value for entry O=C1NC[C@@H]2CN(Cc3ccccc3)C[C@H]2c2cnccc21 (relative stereo)
Reply | 2 µM

Ask | // query EC50 value for entry c1ccc(CN2C[C@H]3CCOc4ncccc4[C@@H]3C2)cc1 (relative stereo)
Reply | 2 µM

Ask | // query EC50 value for entry CS(=O)(=O)c1ccccc1-c1ccc2c(c1)C(=O)NC[C@@H]1CNC[C@@H]21 (relative stereo)
Reply | 0.9 µM
